Each entry below carries its recorded melting point.

>>> result("COc1ccc(CN2C(=O)C(C)(c3cc(C(=O)N(C)C)ccc3Cl)c3cc(Cl)ccc32)c(OC)c1 (stereo not shown) (hydrate or solvate)")
"184 °C"
>>> result("COc1ccc(CN2C(=O)C(C)(c3cc(CN4CCOCC4)ccc3Cl)c3cc(Cl)ccc32)c(OC)c1 (stereo not shown)")
"145 °C"
>>> result("CCN(C(=O)c1ccc(Cl)c(C2(C)C(=O)N(Cc3ccc(OC)cc3OC)c3ccc(Cl)cc32)c1)C(C)C (stereo not shown)")
"102.8 °C"
>>> result("COc1ccc(CN2C(=O)C(C)(c3cc(N(C)S(=O)(=O)c4ccccc4)ccc3Cl)c3cc(Cl)ccc32)c(OC)c1 (stereo not shown) (hydrate or solvate)")
"73 °C"
>>> result("COCC1CCCN1C(=O)c1ccc(Cl)c(C2(C)C(=O)N(Cc3ccc(OC)cc3OC)c3ccc(Cl)cc32)c1 (stereo not shown)")
"98 °C"

Exercise: Please supply the value of reported melting point for the item COC(=O)C1CCCCN1C(=O)c1ccc(Cl)c(C2(C)C(=O)N(Cc3ccc(OC)cc3OC)c3ccc(Cl)cc32)c1 (stereo not shown)
Solution: 116 °C
